assay.text: Partition coefficient Kpart between n-octanol and aqueous tris hydrochloride, by spectrophotometry
conditions.used: n-octanol / tris hcl, pH 7.4
measured.attribute: logD
Number only, no unit.

The molecule listed as Cn1cc(O)c(=O)cc1CO has a reported logD of -1.52

* * *

In this section we review reported Percentage of iron removed 4 hours values for a set of compounds.
target.or.system: Human transferrin (Homo sapiens)
Construct: purchased Sigma
Sequence (P02787 20-698): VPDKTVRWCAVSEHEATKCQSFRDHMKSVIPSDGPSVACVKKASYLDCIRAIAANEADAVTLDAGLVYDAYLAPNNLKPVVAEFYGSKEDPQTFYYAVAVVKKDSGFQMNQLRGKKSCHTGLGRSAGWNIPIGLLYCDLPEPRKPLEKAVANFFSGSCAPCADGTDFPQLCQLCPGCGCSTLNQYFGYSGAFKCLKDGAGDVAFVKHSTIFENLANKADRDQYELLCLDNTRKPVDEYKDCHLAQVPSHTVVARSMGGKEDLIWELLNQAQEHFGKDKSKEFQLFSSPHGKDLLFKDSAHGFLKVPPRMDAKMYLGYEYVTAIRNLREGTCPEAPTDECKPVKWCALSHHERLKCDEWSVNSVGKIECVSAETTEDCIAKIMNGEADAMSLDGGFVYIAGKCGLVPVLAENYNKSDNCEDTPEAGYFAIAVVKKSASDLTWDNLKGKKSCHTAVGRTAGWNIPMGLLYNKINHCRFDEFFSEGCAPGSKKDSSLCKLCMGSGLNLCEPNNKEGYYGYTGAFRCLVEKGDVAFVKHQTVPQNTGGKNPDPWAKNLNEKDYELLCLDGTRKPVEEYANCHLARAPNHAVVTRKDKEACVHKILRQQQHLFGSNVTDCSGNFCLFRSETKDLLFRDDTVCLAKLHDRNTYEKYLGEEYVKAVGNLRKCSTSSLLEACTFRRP
assay.text: Mobilisation of iron from 59Fe-loaded transferrin
Assay type: biochemical
conditions.used: 59Fe transferrin 10^-5 M, compound 4 x 10^-3 M in tris HCl (0.1 M, pH 7.4), incubation 4 hours
Could you give me the number in %? Just the number is fine.

// known answers, use as guide
compound=Cc1c(O)c(=O)ccn1CCO number=94
compound=Cn1cc(O)c(=O)cc1CO number=93
compound="CC(=O)N(O)CCCCCNC(=O)CCC(=O)N(O)CCCCCNC(=O)CCC(=O)N(O)CCCCCN [Desferrioxamine, reference compound]" number=17

Read the next record carefully.
Recorded result, O=C(O)CN(CCN(CC(=O)O)CC(=O)O)CC(=O)O [EDTA, ethylenediamine tetra-acetic acid, reference compound] , Percentage of iron removed 4 hours: 27
